# key: entry, value: pKd
- system: T1, IFN-αF (human, UniProt P01568 24-189)
- T1 construct: Recombinant, HEK293; also called IFN-α21
- T1 chain: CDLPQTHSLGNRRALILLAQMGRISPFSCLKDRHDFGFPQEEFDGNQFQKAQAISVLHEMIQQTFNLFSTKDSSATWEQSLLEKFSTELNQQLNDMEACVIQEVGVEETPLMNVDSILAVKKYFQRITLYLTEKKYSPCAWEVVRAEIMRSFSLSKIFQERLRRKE
- assayText: ProteOn SPR, cell supernatant;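 further: each binding measurement used just a single antigen concentration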
pKd: −log10 of the molar value.

binder	pKd
IFWM3376 (antibody, IgG1, V domains shown, mAb; IgG1/kappa said of the parent and of selected mAbs; also called IFWB3111) VH: EVQLVQSGAEVKKPGESLKISCKGSGYSFTSYWIGWVRQMPGKGLEWMGIIDPSDSDTAYSPSFQGQVTISADKSISTAYLQWSSLKASDTAMYYCARHPGLNWAPDFDYWGQGTLVTVSS VL: DIQMTQSPSSLSASVGDRVTITCRASQSISNSNLNWYQQKPGKAPKLLIHWASSLQSGVPSRFSGSGSGTDFTLTISSLQPEDFATYYCQQWYDHPLTFGQGTKVEIK	10.41
IFWM3414 (antibody, IgG1, V domains shown, mAb; IgG1/kappa said of the parent and of selected mAbs; also called IFWB3149) VH: EVQLVQSGAEVKKPGESLKISCKGSGYSFTSYWIGWVRQMPGKGLEWMGIIDPSDSDTRYSPSFQGQVTISADKSISTAYLQWSSLKASDTAMYYCARHPGLAWAPDFDYWGQGTLVTVSS VL: DIQMTQSPSSLSASVGDRVTITCRASQSIRNNYLNWYQQKPGKAPKLLIYAASSLQSGVPSRFSGSGSGTDFTLTISSLQPEDFATYYCQQGYDTPLTFGQGTKVEIK	10.00
IFWM3372 (antibody, IgG1, V domains shown, mAb; IgG1/kappa said of the parent and of selected mAbs; also called IFWB3107) VH: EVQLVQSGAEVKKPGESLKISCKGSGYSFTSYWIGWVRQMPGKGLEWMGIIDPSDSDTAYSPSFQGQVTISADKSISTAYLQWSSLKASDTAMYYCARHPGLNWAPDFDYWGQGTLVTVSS VL: DIQMTQSPSSLSASVGDRVTITCRASQSIDNNNLNWYQQKPGKAPKLLIYAASSLQSGVPSRFSGSGSGTDFTLTISSLQPEDFATYYCQQGYDWPLTFGQGTKVEIK	9.94
IFWM3403 (antibody, IgG1, V domains shown, mAb; IgG1/kappa said of the parent and of selected mAbs; also called IFWB3138) VH: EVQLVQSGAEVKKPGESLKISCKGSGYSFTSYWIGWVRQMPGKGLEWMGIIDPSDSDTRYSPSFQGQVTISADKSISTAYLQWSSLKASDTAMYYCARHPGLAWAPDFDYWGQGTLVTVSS VL: DIQMTQSPSSLSASVGDRVTITCRASQSIRNSLNWYQQKPGKAPKLLIKWASSLQSGVPSRFSGSGSGTDFTLTISSLQPEDFATYYCQQLYDWPLTFGQGTKVEIK	10.57
IFWM3377 (antibody, IgG1, V domains shown, mAb; IgG1/kappa said of the parent and of selected mAbs; also called IFWB3112) VH: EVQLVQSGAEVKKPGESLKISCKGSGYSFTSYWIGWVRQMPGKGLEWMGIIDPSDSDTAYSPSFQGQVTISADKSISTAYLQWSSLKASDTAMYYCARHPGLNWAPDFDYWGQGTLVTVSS VL: DIQMTQSPSSLSASVGDRVTITCRASQSIRNTNLNWYQQKPGKAPKLLIHWASSLQSGVPSRFSGSGSGTDFTLTISSLQPEDFATYYCQQGYDTPFTFGQGTKVEIK	10.29
